Recorded inhibition of growth at 10 µg/mL values for a group of compounds are listed next.
tested on: Bacillus subtilis; test: Growth inhibition of Bacillus subtilis NCIM 2079 at 10 ug/ml measured after 12 hrs relative to control; type: functional; details: NCIM 2079, 12 h, read-out: GI
Express your answer in %, writing the number without its unit.

Worked cases, answers included:
compound structure: O=C(O)CN1C(=O)/C(=C/c2cc3ccccc3nc2Cl)SC1=S
readout value: -24.5
--
compound structure: Cc1ccc2cc(/C=C3\SC(=S)N(CC(=O)O)C3=O)c(Cl)nc2c1
readout value: -1.27
--
compound structure: COc1ccc2nc(Cl)c(/C=C3\SC(=S)N(CC(=O)O)C3=O)cc2c1
readout value: -37.3
--
compound structure: O=C(O)CN1C(=O)/C(=C/c2cc3cc(Cl)ccc3nc2Cl)SC1=S
readout value: -12.6
--
compound structure: CCOc1ccc2nc(Cl)c(/C=C3\SC(=S)NC3=O)cc2c1
readout value: -7.03

# inhibition of growth at 10 µg/mL of Cc1ccc2nc(Cl)c(/C=C3\SC(=S)N(CC(=O)O)C3=O)cc2c1 = -6.38

Notebook: COc1ccc2cc(/C=C3\SC(=S)N(CCC(=O)O)C3=O)c(Cl)nc2c1 , inhibition of growth at 10 µg/mL read as -0.582

Recorded inhibition of growth at 10 µg/mL (compound Cc1ccc2cc(/C=C3\SC(=S)NC3=O)c(Cl)nc2c1 ): -4.08

Kindly note the recorded inhibition of growth at 10 µg/mL for O=C1NC(=S)S/C1=C\c1cc2cc(F)ccc2nc1Cl , which is 2.58

The compound identified as COc1ccc2nc(Cl)c(/C=C3\SC(=S)N(CCC(=O)O)C3=O)cc2c1 registered its inhibition of growth at 10 µg/mL at -1.08

inhibition of growth at 10 µg/mL in this record for O=C1NC(=S)S/C1=C\c1cc2ccccc2nc1Cl : 0.915

Lab book: inhibition of growth at 10 µg/mL of O=C(O)CN1C(=O)/C(=C/c2cc3cc(F)ccc3nc2Cl)SC1=S noted as -2.7

compound COc1ccc2cc(/C=C3\SC(=S)NC3=O)c(Cl)nc2c1 , inhibition of growth at 10 µg/mL observed: -8.32

# inhibition of growth at 10 µg/mL of Cc1ccc2nc(Cl)c(/C=C3\SC(=S)N(CCC(=O)O)C3=O)cc2c1 = -25.6

inhibition of growth at 10 µg/mL in this record for O=C(O)CCN1C(=O)/C(=C/c2cc3cc(Cl)ccc3nc2Cl)SC1=S : -1.12

The value of inhibition of growth at 10 µg/mL measured for the compound O=C(O)CCN1C(=O)/C(=C/c2cc3ccccc3nc2Cl)SC1=S turned out to be 6.32

compound COc1ccc2nc(Cl)c(/C=C3\SC(=S)NC3=O)cc2c1 , inhibition of growth at 10 µg/mL observed: 22.7

Cc1ccc2nc(Cl)c(/C=C3\SC(=S)NC3=O)cc2c1 has a reported inhibition of growth at 10 µg/mL of -3.58

The recorded inhibition of growth at 10 µg/mL for Cc1ccc2cc(/C=C3\SC(=S)N(CCC(=O)O)C3=O)c(Cl)nc2c1 is -5.45

Just so you know, measured inhibition of growth at 10 µg/mL for COc1ccc2cc(/C=C3\SC(=S)N(CC(=O)O)C3=O)c(Cl)nc2c1 came out at -0.0845

According to the records, this compound Cc1cccc2cc(/C=C3\SC(=S)N(CCC(=O)O)C3=O)c(Cl)nc12 displays inhibition of growth at 10 µg/mL of -5.28

So for Cc1cccc2cc(/C=C3\SC(=S)NC3=O)c(Cl)nc12 , the logged inhibition of growth at 10 µg/mL turned out to be -0.291

The compound identified as CCOc1ccc2nc(Cl)c(/C=C3\SC(=S)N(CC(=O)O)C3=O)cc2c1 registered its inhibition of growth at 10 µg/mL at -0.253

----------
Listing: MIC of selected compounds
system: Staphylococcus aureus; test: Antibacterial activity against of Staphylococcus aureus NCIM 2010 measured after 12 hrs; assay type: functional; conditions: NCIM 2010, 12 h

compound structure: O=C1NC(=S)S/C1=C\c1cc2cc(Cl)ccc2nc1Cl
MIC: 2.55 µg/mL

Per the record, O=C(O)CCN1C(=O)/C(=C/c2cc3cc(Cl)ccc3nc2Cl)SC1=S has MIC of > 30 µg/mL

// sample Cc1cccc2cc(/C=C3\SC(=S)NC3=O)c(Cl)nc12 , its MIC was > 30 µg/mL

// MIC value for COc1ccc2nc(Cl)c(/C=C3\SC(=S)NC3=O)cc2c1 : 7.86 µg/mL

Record Cc1ccc2cc(/C=C3\SC(=S)NC3=O)c(Cl)nc2c1 , field MIC: > 30 µg/mL

Given item Cc1cccc2cc(/C=C3\SC(=S)N(CC(=O)O)C3=O)c(Cl)nc12 , the value recorded as its MIC is > 30 µg/mL

// recorded MIC for Cc1ccc2nc(Cl)c(/C=C3\SC(=S)N(CCC(=O)O)C3=O)cc2c1 : > 30 µg/mL

# MIC of Cc1cccc2cc(/C=C3\SC(=S)N(CCC(=O)O)C3=O)c(Cl)nc12 = > 30 µg/mL

// recorded MIC for COc1ccc2cc(/C=C3\SC(=S)NC3=O)c(Cl)nc2c1 : > 30 µg/mL

Reported MIC ( Cc1ccc2nc(Cl)c(/C=C3\SC(=S)N(CC(=O)O)C3=O)cc2c1 ) = > 30 µg/mL

----------
system: Aspergillus niger; experiment: Antifungal activity against Aspergillus niger NCIM 1196 by standard agar method; type: functional
This section presents molecules with their documented MIC values.
Just the number in µg/mL, nothing appended.

compound structure: Cc1ccc2cc(/C=C3\SC(=S)NC3=O)c(Cl)nc2c1
MIC, µg/mL: 75

GET /value?item= Cc1cccc2cc(/C=C3\SC(=S)N(CCC(=O)O)C3=O)c(Cl)nc12 &field=MIC returns 75

Lab note: measured MIC of O=C1NC(=S)S/C1=C\c1cc2ccccc2nc1Cl was 100

Reported MIC ( COc1ccc2nc(Cl)c(/C=C3\SC(=S)N(CCC(=O)O)C3=O)cc2c1 ) = 175

Kindly note the recorded MIC for O=C(O)CN1C(=O)/C(=C/c2cc3cc(Cl)ccc3nc2Cl)SC1=S , which is 100

----------
system: Pseudomonas fluorescens; assay: Antibacterial activity against Pseudomonas fluorescens NCIM 2036 measured after 8 hrs; type: functional; details: NCIM 2036, 8 h
property label: MIC

See these solved cases before continuing.
compound structure: COc1ccc2cc(/C=C3\SC(=S)N(CCC(=O)O)C3=O)c(Cl)nc2c1
readout value: > 30 µg/mL
//
compound structure: COc1ccc2nc(Cl)c(/C=C3\SC(=S)N(CC(=O)O)C3=O)cc2c1
readout value: > 30 µg/mL
//
compound structure: O=C(O)CN1C(=O)/C(=C/c2cc3ccccc3nc2Cl)SC1=S
readout value: > 30 µg/mL
//
compound structure: Cc1ccc2cc(/C=C3\SC(=S)N(CCC(=O)O)C3=O)c(Cl)nc2c1
readout value: > 30 µg/mL
//
compound structure: CC1(C)S[C@@H]2[C@H](NC(=O)[C@H](N)c3ccccc3)C(=O)N2[C@H]1C(=O)O
readout value: 2.83 µg/mL

Per the reported Pseudomonas fluorescens data, CCOc1ccc2nc(Cl)c(/C=C3\SC(=S)N(CCC(=O)O)C3=O)cc2c1 has MIC of > 30 µg/mL

Record for O=C1NC(=S)S/C1=C\c1cc2cc(Cl)ccc2nc1Cl under target or system Pseudomonas fluorescens: MIC reported as 2.8 µg/mL

Considering CCOc1ccc2nc(Cl)c(/C=C3\SC(=S)NC3=O)cc2c1 , its MIC with Pseudomonas fluorescens was recorded as > 30 µg/mL

Tested on Pseudomonas fluorescens, the item COc1ccc2nc(Cl)c(/C=C3\SC(=S)NC3=O)cc2c1 showed MIC equal to > 30 µg/mL

Query O=C(O)CN1C(=O)/C(=C/c2cc3cc(F)ccc3nc2Cl)SC1=S on Pseudomonas fluorescens; MIC returned: > 30 µg/mL

----------
assay: Cytotoxicity against human THP1 cells assessed as growth inhibition at 100 ug/ml measured after 48 hrs by MTT assay relative to control; assay type: toxicity, cell-based, THP-1; conditions: read-out: GI
Examples of molecules with documented inhibition at 48 h, 100 ug/ml follow.
Field format: number, assumed %, no unit text.

Use the examples below as a reference point.
compound structure: COc1ccc2cc(/C=C3\SC(=S)NC3=O)c(Cl)nc2c1
readout value: 26.7
--
compound structure: Cc1cccc2cc(/C=C3\SC(=S)NC3=O)c(Cl)nc12
readout value: 13.2
--
compound structure: CCOc1ccc2nc(Cl)c(/C=C3\SC(=S)NC3=O)cc2c1
readout value: 28.6
--
compound structure: O=C1NC(=S)S/C1=C\c1cc2cc(Cl)ccc2nc1Cl
readout value: 28.7
--
compound structure: O=C(O)CN1C(=O)/C(=C/c2cc3cc(F)ccc3nc2Cl)SC1=S
readout value: 27.6

Entry under test: COc1ccc2nc(Cl)c(/C=C3\SC(=S)NC3=O)cc2c1 . Its inhibition at 48 h, 100 ug/ml was 26.3

response.value for O=C1NC(=S)S/C1=C\c1cc2cc(F)ccc2nc1Cl (field: inhibition at 48 h, 100 ug/ml) = 26.3

inhibition at 48 h, 100 ug/ml in this record for Cc1cccc2cc(/C=C3\SC(=S)N(CC(=O)O)C3=O)c(Cl)nc12 : 32.3

Data origin, for the record: ChEMBL document CHEMBL3877264
